experimentalTarget: GABAA receptor
procedureDetails: Steroid inhibition of [35S]-TBPS binding, rat brain cortical membranes
cond: 3 nM [35S]-TBPS, in the presence of 5 mM GABA
Experimental: [^35S]-t-Butylbicyclophosphorothionate (TBPS) binding assays using rat brain cortical membranes in the presence of 5 mM GABA has been described (Gee et al, J. Pharmacol. Exp. Ther. 1987, 241, 346-353; Hawkinson et al, Mol. Pharmacol. 1994, 46, 977-985; Lewin, A. H et al., Mol. Pharmacol. 1989, 35, 189-194). Briefly, cortices are rapidly removed following decapitation of carbon dioxide-anesthetized Sprague-Dawley rats (200-250 g). […]
reportedEndpoint: IC50

• COC[C@@]1(O)CC[C@H]2[C@H](CC[C@@H]3[C@@H]2CC[C@]2(C)[C@@H](C(C)(Cn4cc(C#N)cn4)OC)CC[C@@H]32)C1 (stereo in doubt) [Compound 32] = 100 to 1000 nM
• COC[C@@]1(O)CC[C@@]2(C)[C@H](CC[C@@H]3[C@@H]2CC[C@@]2(C)[C@H]3CC[C@@H]2[C@@](C)(Cn2cc(C#N)cn2)OC)C1 = 100 to 1000 nM
• CO[C@@H]1C[C@H]2[C@H](CC[C@@H]3[C@@H]2CC[C@@]2(C)[C@H]3CC[C@@H]2[C@@](C)(O)Cn2cc(C#N)cn2)C[C@]1(C)O = 100 to 1000 nM
• CCC[C@@]1(O)CC[C@@]2(C)[C@H](CC[C@@H]3[C@@H]2CC[C@@]2(C)[C@H]3CC[C@@H]2[C@@](C)(O)Cn2cc(C#N)cn2)C1 = 100 to 1000 nM
• CCC[C@@]1(O)CC[C@H]2[C@H](CC[C@@H]3[C@@H]2CC[C@@]2(C)[C@H]3CC[C@@H]2[C@](C)(O)Cn2cc(C#N)cn2)C1 = < 100 nM
• C[C@@H]1C[C@H]([C@@](C)(O)Cn2cc(C#N)cn2)[C@@]2(C)CC[C@H]3[C@@H](CC[C@@H]4C[C@](C)(O)CC[C@@H]43)[C@H]12 = < 100 nM
• CC[C@@]1(O)CC[C@H]2[C@@H](CC[C@@H]3[C@@H]2CC[C@@]2(C)[C@H]3CC[C@@H]2[C@](C)(O)Cn2cc(C#N)cn2)C1 = 100 to 1000 nM
• CC[C@]12CC[C@](O)(COC)C[C@H]1CC[C@H]1[C@@H]3CC[C@H]([C@](C)(O)Cn4cc(C#N)cn4)[C@@]3(C)CC[C@@H]12 = < 100 nM
• COC[C@@]1(O)CC[C@H]2[C@@H](CC[C@@H]3[C@@H]2CC[C@@]2(C)[C@H]3CC[C@@H]2[C@](C)(O)Cn2cc(C#N)cn2)C1 = < 100 nM
• CC[C@H]1C[C@H]2[C@H](CC[C@@H]3[C@@H]2CC[C@@]2(C)[C@H]3CC[C@@H]2[C@@](C)(O)Cn2cc(C#N)cn2)C[C@]1(C)O = 100 to 1000 nM
• C[C@@]1(O)CC[C@H]2[C@H](CC[C@@H]3[C@@H]2CC[C@@]2(C)[C@H]3[C@H](C3CC3)C[C@@H]2[C@@](C)(O)Cn2cc(C#N)cn2)C1 = < 100 nM
• C[C@@]1(O)CC[C@H]2[C@H](CC[C@@H]3[C@@H]2CC[C@@]2(C)[C@H]3[C@H](C3CC3)C[C@@H]2[C@](C)(O)Cn2cc(C#N)cn2)C1 = < 100 nM
• CC[C@H]1C[C@H]2[C@H](CC[C@@H]3[C@@H]2CC[C@@]2(C)[C@H]3CC[C@@H]2[C@](C)(O)Cn2cc(C#N)cn2)C[C@]1(C)O = < 100 nM
• CC(=O)c1cnn(C[C@@](C)(O)[C@H]2CC[C@H]3[C@@H]4CC[C@@H]5C[C@](C)(O)CC[C@@H]5[C@H]4CC[C@@]32C)c1 = < 100 nM
• CCC[C@@]1(O)CC[C@@]2(CC)[C@H](CC[C@H]3[C@@H]4CC[C@H]([C@](C)(O)Cn5cc(C#N)cn5)[C@@]4(C)CC[C@@H]32)C1 = < 100 nM
• C[C@H]1C[C@H]2[C@H](CC[C@@H]3[C@@H]2CC[C@@]2(C)[C@H]3CC[C@@H]2[C@](C)(O)Cn2cc(C#N)cn2)C[C@]1(C)O = < 100 nM
• COC[C@@]1(O)CC[C@H]2[C@H](CC[C@@H]3[C@@H]2CC[C@@]2(C)[C@H]3CC[C@@H]2[C@](C)(O)Cn2cc(C#N)cn2)C1 = < 100 nM
• CCC[C@@]1(O)CC[C@H]2[C@H](CC[C@@H]3[C@@H]2CC[C@@]2(C)[C@H]3CC[C@@H]2[C@](C)(O)Cn2ccc(C#N)n2)C1 = < 100 nM
• CC[C@@]1(O)CC[C@H]2[C@H](CC[C@@H]3[C@@H]2CC[C@@]2(C)[C@H]3CC[C@@H]2[C@@](C)(O)Cn2cc(C#N)cn2)C1 = 100 to 1000 nM
• CCC[C@@]1(O)CC[C@H]2[C@H](CC[C@@H]3[C@@H]2CC[C@@]2(C)[C@H]3CC[C@@H]2[C@@](C)(Cn2cc(C#N)cn2)OC)C1 = 100 to 1000 nM
